Experiment: Metabolic stability, CD-1 mouse microsomes
Assay type: in vitro ADME
Conditions: % of the initial 0 minutes value at 60 min, 10 μM, 37° C.
Protocol: Microsomes from a human 50 donor mixed gender pool and 1:1 mixtures of microsomes from CD-1 mouse single-gender pools are purchased from Celsis (Belgium). […] After acetonitrile precipitation (2 volumes) and HPLC/MS/MS analysis metabolic turnover is expressed in % of the initial 0 minutes value and half life T½ (min) is calculated. […]
REPORTED_METRIC: Metabolic Stability 60 min mouse (%)

These solved cases illustrate the format of a correct answer.
>  <SMILES_CODE>
CCCCC(=O)N[C@H]1C[C@H]2COc3ccc(F)cc3C(=O)N(C)[C@@H](C(=O)NCc3ccc4ccccc4c3)CCC(=O)N(C)CC(=O)N2C1

>  <Metabolic Stability 60 min mouse (%)>
25

$$$$
>  <SMILES_CODE>
CN1CC(=O)N2C[C@@H](N)C[C@H]2COc2ccc(F)cc2C(=O)N(C)[C@@H](C(=O)NCc2ccc3ccccc3c2)CCC1=O

>  <Metabolic Stability 60 min mouse (%)>
95

$$$$
>  <SMILES_CODE>
CN1CC(=O)N2C[C@H](NC(=O)Cc3ccc4ccccc4c3)C[C@H]2COc2ccc(cc2)C(=O)N(C)[C@H](C(=O)N2CCCC2)CCC1=O

>  <Metabolic Stability 60 min mouse (%)>
32

$$$$
>  <SMILES_CODE>
CC(=O)N[C@H]1C[C@H]2COc3ccc(F)cc3C(=O)N(C)[C@H](C(=O)NCCc3c[nH]c4ccccc34)CCC(=O)N(C)CC(=O)N2C1

>  <Metabolic Stability 60 min mouse (%)>
80

$$$$

I: CCCCCCCCCC(=O)N[C@H]1C[C@H]2COc3ccc(F)cc3C(=O)N(C)[C@H](C(=O)NCc3ccc4ccccc4c3)CCC(=O)N(C)CC(=O)N2C1
II: CN(C)CCNC(=O)[C@H]1CCC(=O)N(C)CC(=O)N2CCN(C(=O)Cc3ccc4ccccc4c3)C[C@@H]2COc2ccc(F)cc2C(=O)N1C
Hi team, can someone confirm which has the larger Metabolic Stability 60 min mouse: I or II ? Thanks. Pick one and reply with its label.
II
(II: 99%, I: 39%)

###

experiment: Metabolic stability, human microsomes; format: in vitro ADME; conditions: % of the initial 0 minutes value at 60 min, 10 μM, 37° C.
REPORTED_METRIC: Metabolic Stability 60 min hum (%)

>  <SMILES_CODE>
CN(C)CCNC(=O)[C@@H]1CCC(=O)N(C)CC(=O)N2C[C@@H](NC(=O)Cc3c[nH]c4ccccc34)C[C@H]2COc2ccc(F)cc2C(=O)N1C

>  <MEASUREMENT>
74

$$$$

A: CN1CC(=O)N2C[C@@H](NC(=O)OC(C)(C)C)C[C@H]2COc2ccc(F)cc2C(=O)N(C)[C@H](C(=O)NCCc2c[nH]c3ccccc23)CCC1=O
B: CCCCC(=O)N[C@@H]1C[C@H]2COc3ccc(F)cc3C(=O)N(C)[C@H](C(=O)N(C)CCN(C)C)CCC(=O)N(C)CC(=O)N2C1
From the recorded data, which exceeds the other in Metabolic Stability 60 min hum: A or B ? Mark your answer with the label of the selected entry.
B

P: CN(C)CCNC(=O)[C@H]1CCC(=O)N(C)CC(=O)N2CCN(C(=O)Cc3ccc4ccccc4c3)C[C@@H]2COc2ccc(F)cc2C(=O)N1C
Q: CN1CCC[C@H](NC(=O)OCc2ccccc2)C(=O)N2C[C@@H](NC(=O)Cc3ccc4ccccc4c3)C[C@H]2COc2cccc(c2)C1=O
Param pair: P , Q . Output: the one whose Metabolic Stability 60 min hum is numerically greater. Returns: label corresponding to the selected item.
P
(P: 62%, Q: 0%)

###

target: 5-hydroxytryptamine 2B (5-HT2B) receptor (Homo sapiens, UniProt P41595); construct: expressed in transfected cells; host or cells: Ca2+ optimized hematopoietic cell lines (rat); assay: Ca2+ assay (FLIPR), 5-hydroxytryptamine 2B (5-HT2B) receptor, agonist mode (percentage activation); format: cell-based
Sequence (P41595 whole entry): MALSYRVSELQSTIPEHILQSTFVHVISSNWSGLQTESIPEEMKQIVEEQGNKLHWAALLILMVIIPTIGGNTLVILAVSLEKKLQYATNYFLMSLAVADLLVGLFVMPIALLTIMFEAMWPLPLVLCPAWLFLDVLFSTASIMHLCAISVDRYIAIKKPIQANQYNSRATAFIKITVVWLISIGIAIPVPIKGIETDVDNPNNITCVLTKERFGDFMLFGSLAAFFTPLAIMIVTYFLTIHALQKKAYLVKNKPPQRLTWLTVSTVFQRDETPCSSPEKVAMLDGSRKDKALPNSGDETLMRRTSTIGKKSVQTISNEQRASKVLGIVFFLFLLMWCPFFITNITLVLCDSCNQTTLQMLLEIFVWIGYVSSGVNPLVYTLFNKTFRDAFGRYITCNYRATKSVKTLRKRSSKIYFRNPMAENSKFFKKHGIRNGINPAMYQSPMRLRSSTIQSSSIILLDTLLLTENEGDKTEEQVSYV
REPORTED_METRIC: 5-HT2B receptor agonist activity [% activation at 12.5 μM] (%)

>  <SMILES_CODE>
CC(=O)N[C@H]1C[C@H]2COc3ccc(F)cc3C(=O)N(C)[C@H](C(=O)NCCc3c[nH]c4ccccc34)CCC(=O)N(C)CC(=O)N2C1

>  <TARGET_OF_ASSAY>
5-hydroxytryptamine 2B (5-HT2B) receptor (Homo sapiens, UniProt P41595)

>  <UNIT_INFO>
%

>  <MEASUREMENT>
48

$$$$
>  <SMILES_CODE>
CN1CC(=O)N2C[C@@H](NC(=O)Cc3c[nH]c4ccccc34)C[C@H]2COc2ccc(F)cc2C(=O)N(C)[C@H](C(=O)NCCc2c[nH]c3ccccc23)CCC1=O

>  <TARGET_OF_ASSAY>
5-hydroxytryptamine 2B (5-HT2B) receptor (Homo sapiens, UniProt P41595)

>  <UNIT_INFO>
%

>  <MEASUREMENT>
36

$$$$
>  <SMILES_CODE>
CN1CC(=O)N2C[C@@H](NC(=O)OC(C)(C)C)C[C@H]2COc2ccc(F)cc2C(=O)N(C)[C@H](C(=O)NCCc2c[nH]c3ccccc23)CCC1=O

>  <TARGET_OF_ASSAY>
5-hydroxytryptamine 2B (5-HT2B) receptor (Homo sapiens, UniProt P41595)

>  <UNIT_INFO>
%

>  <MEASUREMENT>
48

$$$$
>  <SMILES_CODE>
CN(C)CC(=O)N[C@H]1C[C@H]2COc3ccc(F)cc3C(=O)N(C)[C@H](C(=O)NCCc3c[nH]c4ccccc34)CCC(=O)N(C)CC(=O)N2C1

>  <TARGET_OF_ASSAY>
5-hydroxytryptamine 2B (5-HT2B) receptor (Homo sapiens, UniProt P41595)

>  <UNIT_INFO>
%

>  <MEASUREMENT>
45

$$$$

###

conditions: both, CD-1, mouse, 10 μM
REPORTED_METRIC: Plasma Stability 240 min mouse (%)

>  <SMILES_CODE>
CC(=O)N[C@H]1C[C@H]2COc3ccc(F)cc3C(=O)N(C)[C@H](C(=O)NCCc3c[nH]c4ccccc34)CCC(=O)N(C)CC(=O)N2C1

>  <REPORTED_METRIC>
Plasma Stability 240 min mouse

>  <MEASUREMENT>
93

$$$$
>  <SMILES_CODE>
CC(=O)N[C@H]1C[C@H]2COc3ccc(F)cc3C(=O)N(C)[C@H](C(=O)N3CCCC3)CCC(=O)N(C)CC(=O)N2C1

>  <REPORTED_METRIC>
Plasma Stability 240 min mouse

>  <MEASUREMENT>
100

$$$$
>  <SMILES_CODE>
CNC(=O)[C@H]1CCC(=O)N(C)CC(=O)N2C[C@@H](NC(=O)Cc3ccc4ccccc4c3)C[C@H]2COc2ccc(F)cc2C(=O)N1C

>  <REPORTED_METRIC>
Plasma Stability 240 min mouse

>  <MEASUREMENT>
100

$$$$
>  <SMILES_CODE>
CN1CC(=O)N2C[C@@H](NC(=O)CCC(=O)O)C[C@H]2COc2ccc(F)cc2C(=O)N(C)[C@@H](C(=O)NCc2ccc3ccccc3c2)CCC1=O

>  <REPORTED_METRIC>
Plasma Stability 240 min mouse

>  <MEASUREMENT>
93

$$$$
>  <SMILES_CODE>
CN(C)CCNC(=O)[C@@H]1CCC(=O)N(C)CC(=O)N2C[C@@H](NC(=O)Cc3cccc4ccccc34)C[C@H]2COc2ccc(F)cc2C(=O)N1C

>  <REPORTED_METRIC>
Plasma Stability 240 min mouse

>  <MEASUREMENT>
96

$$$$
>  <SMILES_CODE>
CN1CC(=O)N2C[C@H](NC(=O)CCC(=O)O)C[C@H]2COc2ccc(cc2)C(=O)N(C)[C@H](C(=O)NCc2ccncc2)CCC1=O

>  <REPORTED_METRIC>
Plasma Stability 240 min mouse

>  <MEASUREMENT>
79

$$$$
>  <SMILES_CODE>
CN1CC(=O)N2C[C@H](NC(=O)CCc3ccncc3)C[C@H]2COc2ccc(cc2)C(=O)N(C)[C@H](C(=O)NCc2ccc3ccccc3c2)CCC1=O

>  <REPORTED_METRIC>
Plasma Stability 240 min mouse

>  <MEASUREMENT>
100

$$$$
>  <SMILES_CODE>
CN1CC(=O)N2C[C@@H](NC(=O)CN3CCCC3)C[C@H]2COc2ccc(F)cc2C(=O)N(C)[C@@H](C(=O)N2CCCC2)CCC1=O

>  <REPORTED_METRIC>
Plasma Stability 240 min mouse

>  <MEASUREMENT>
78

$$$$
>  <SMILES_CODE>
CN1CC(=O)N2C[C@H](NC(=O)CN3CCCC3)C[C@H]2COc2ccc(cc2)C(=O)N(C)[C@H](C(=O)NCc2ccncc2)CCC1=O

>  <REPORTED_METRIC>
Plasma Stability 240 min mouse

>  <MEASUREMENT>
74

$$$$
>  <SMILES_CODE>
CCCCCCCCCC(=O)N[C@H]1C[C@H]2COc3ccc(F)cc3C(=O)N(C)[C@H](C(=O)NCc3ccc4ccccc4c3)CCC(=O)N(C)CC(=O)N2C1

>  <REPORTED_METRIC>
Plasma Stability 240 min mouse

>  <MEASUREMENT>
75

$$$$
>  <SMILES_CODE>
CN(C)CC(=O)N[C@H]1C[C@H]2COc3ccc(F)cc3C(=O)N(C)[C@H](C(=O)NCCc3c[nH]c4ccccc34)CCC(=O)N(C)CC(=O)N2C1

>  <REPORTED_METRIC>
Plasma Stability 240 min mouse

>  <MEASUREMENT>
97

$$$$
>  <SMILES_CODE>
CN(C)CCNC(=O)[C@@H]1CCC(=O)N(C)CC(=O)N2C[C@@H](NC(=O)Cc3c[nH]c4ccccc34)C[C@H]2COc2ccc(F)cc2C(=O)N1C

>  <REPORTED_METRIC>
Plasma Stability 240 min mouse

>  <MEASUREMENT>
100

$$$$
